- test_system: MYLK2 (human) (UniProt Q9H1R3)
- Sequence (Q9H1R3 whole entry, looked up): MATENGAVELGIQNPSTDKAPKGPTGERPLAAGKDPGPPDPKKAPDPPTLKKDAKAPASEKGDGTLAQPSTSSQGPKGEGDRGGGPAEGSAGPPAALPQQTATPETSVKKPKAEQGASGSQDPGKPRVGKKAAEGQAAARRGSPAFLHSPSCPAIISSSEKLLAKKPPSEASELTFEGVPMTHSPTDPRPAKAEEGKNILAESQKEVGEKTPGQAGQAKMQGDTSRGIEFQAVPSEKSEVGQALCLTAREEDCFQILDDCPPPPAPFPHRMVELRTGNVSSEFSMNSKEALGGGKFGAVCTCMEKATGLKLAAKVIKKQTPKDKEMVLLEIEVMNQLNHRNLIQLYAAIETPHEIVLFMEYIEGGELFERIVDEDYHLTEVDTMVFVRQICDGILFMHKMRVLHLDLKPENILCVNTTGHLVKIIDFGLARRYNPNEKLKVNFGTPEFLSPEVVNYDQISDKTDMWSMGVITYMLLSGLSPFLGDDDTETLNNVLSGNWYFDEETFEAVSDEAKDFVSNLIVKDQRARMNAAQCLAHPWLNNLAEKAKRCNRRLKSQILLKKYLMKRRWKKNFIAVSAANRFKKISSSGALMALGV
- procedure_summary: radiometric filter-binding kinase assay, Kinase HotSpot
- condition_set: compound 0.5 µM; ATP 10 µM
measurement_type: residual activity (%)

| structure_string | value_observed |
| --- | --- |
| c1ccc(-c2n[nH]cc2-c2ccnc3ccccc23)nc1 | 98.3 |
| Cc1ccc(NC2=CC(=O)c3sc(C)nc3C2=O)cc1 | 92.8 |
| O=C1NC(=O)/C(=C/c2ccc3c(c2)OC(F)(F)O3)S1 | 96.6 |
| O=C1Nc2ccc(Cl)cc2/C1=C/c1cc(Cl)c(O)c(Cl)c1 | 71.5 |
| N#CC(C#N)=C(N)/C(C#N)=C/c1ccc(O)cc1 | 99.4 |
| CC(=O)c1ccc(N2CCOCC2)cc1O | 98.6 |
| CC(C)N(CCC(=O)c1ccc2ccccc2c1)Cc1ccccc1 | 100 |
| N#C/C(=C(/N)Sc1ccc(N)cc1)c1ccccc1C(F)(F)F | 100 |
| O=S(=O)(c1cccc2cnccc12)N1CCCNCC1 | 99.6 |
| COc1ccc2c(c[n+](C)c3c4cc5c(cc4ccc23)OCO5)c1OC | 95.3 |
| O=C1NC(=O)C(c2cn(CCCn3ccnc3)c3ccccc23)=C1Nc1ccccc1 | 95.7 |
| O=C(Nc1cccc(Nc2nccc(Nc3cccc(C(F)(F)F)c3)n2)c1)C1CC1 | 93.6 |
| CC#CC(=O)Nc1cc2c(Nc3ccc(F)c(Cl)c3)ncnc2cn1 | 99.9 |
| CCC(=O)Nc1ccc2ncnc(Nc3cccc(Br)c3)c2c1 | 96.4 |
